assay: Human HepG2 cell viability assay in 384 well format; type: toxicity, cell-based; parameters: dose 125 nL, time 70.5 hour; concentration not given beside the values; conditions: HepG2 cells, read-out: Inhibition
property: cytotoxicity at 70.5 h (%)
Your answer should be a plain number; it is taken to be in %.

# example entries with known answers
Cn1c(CO)cnc1SC1CCCN(c2ccccc2F)C1=O (stereo not drawn) : 6.04
c1cnnc(N2CCC(c3nnc(Cn4ccnc4)n3C3CC3)CC2)c1 : -4.27
O=C(c1ccncc1)N1CCCn2nnc(Cn3cccn3)c2C1 : -8.56
Cc1noc2nc(C3CCN(CC4CCCCC4)CC3)cc(C(F)F)c12 : 1.17
Cc1cnn(C2CN(Cc3nc4cc(Cl)ccc4n3C)C2)c1 : 7.22

Ask: May I ask what cytotoxicity at 70.5 h has been recorded for `Nc1nc(N2CCCCCC2)ncc1C(=O)NCc1ccc(F)c(Cl)c1` ?
Reply: -10.8

Ask: May I ask what cytotoxicity at 70.5 h has been recorded for `O=C(CSc1nnc2n1N=CN(c1ccccc1)C2)c1ccccc1` ?
Reply: -7.5

Ask: May I ask what cytotoxicity at 70.5 h has been recorded for CN(Cc1ccc2c(c1)OCO2)C(=O)C1CC(c2cccc(F)c2)=NO1 (stereo not drawn) ?
Reply: -9.63

Ask: May I ask what cytotoxicity at 70.5 h has been recorded for `CC(C)NC(=O)N1CCC2(CC1)[C@@H]1CN(C(=O)N(C)C)C[C@@H]1C(=O)N2C` ?
Reply: -7.71

Ask: May I ask what cytotoxicity at 70.5 h has been recorded for `O=C(NCCN1CCOCC1)NCc1cccnc1-n1cccn1` ?
Reply: -2.89

Ask: May I ask what cytotoxicity at 70.5 h has been recorded for Cc1nn(Cn2ccc(C(=O)N3CCCC(C)C3)n2)c(C)c1Cl (stereo not drawn) ?
Reply: -5.65

Ask: May I ask what cytotoxicity at 70.5 h has been recorded for `COC(=O)CCC(=O)N1CCc2nc(C(=O)N(C)C)sc2CC1` ?
Reply: -10.1

* * *

assay: Human HepG2 cell viability assay in 384 well format; assay type: toxicity, cell-based; set-up: dose 125 nL, time 70.5 hour; concentration not given beside the values; conditions: HepG2 cells, read-out: Inhibition
property: cytotoxicity at 70.5 h (%)
Your answer should be a plain number; it is taken to be in %.

# example entries with known answers
CCOCC(=O)N1CCC(c2nccn2Cc2cscn2)CC1 : 21.4
CN(C)CCNCCC(c1ccccc1)C1CCOC(C)(C)C1 (centres undefined) : -6.43
COc1ncccc1CN1CCn2c(C(=O)N3CCCC3)cnc2C1 : -5.02
CCC[C@@H]1CN(C(=O)c2conc2-c2ccccc2)C[C@H]1N(C)C : 0.694
O=C1C[C@H]2[C@@H](CCN2C(=O)Cc2cccs2)N1Cc1cccnc1 : -17
CC(=O)Nc1nc(C(=O)NCCOc2ccccc2)cs1 : -6.89
Cc1ccccc1C(C)NC(=O)Cc1c(C)nc2cc(=O)[nH]n2c1C (centres undefined) : -10.1
Cc1ccc(C(=O)N2CCc3c(CNc4ncccn4)cncc3C2)o1 : -10.9
NC(=O)c1cc(C2CCCN(CCc3ccc4c(c3)CCO4)C2)n[nH]1 (centres undefined) : -19
CCC1CN(C(=O)c2cccc(OCc3cscn3)c2)CCO1 (centres undefined) : -5.57

Consider the additional compound presented here.
Ask: May I ask what cytotoxicity at 70.5 h has been recorded for CN(Cc1ccc(F)cc1)CC1(O)CCCN(CC(C)(C)C)C1=O (centres undefined) ?
Reply: -6.42

* * *

Items are presented alongside their recorded cytotoxicity at 70.5 h.
experiment: Human HepG2 cell viability assay in 384 well format; assay type: toxicity, cell-based; design: dose 125 nL, time 70.5 hour; concentration not given beside the values; conditions: HepG2 cells, read-out: Inhibition
Your answer should be a plain number; it is taken to be in %.

# example entries with known answers
CN1CCC(Cc2noc(-c3cccc(Oc4ncccn4)c3)n2)CC1 : -2
CCS(=O)(=O)CCn1ccc(NC(=O)CCc2cccc(C)c2)n1 : -2.75
Cc1csc(CN(CC2CCCO2)C(=O)c2cccnc2C)n1 (stereo unspecified) : -6.56

Ask: May I ask what cytotoxicity at 70.5 h has been recorded for `COc1cc(F)c(NC(=O)N(C)Cc2cc(C)on2)cc1F` ?
Reply: -5.99

Ask: May I ask what cytotoxicity at 70.5 h has been recorded for Cc1noc(CCCC(=O)NC(C)c2nnc3n2CCCCC3)n1 (stereo unspecified) ?
Reply: -1.92

Ask: May I ask what cytotoxicity at 70.5 h has been recorded for CC(=O)Nc1ccc(Cl)c(C(=O)N(C)C(C)c2ccon2)c1 (stereo unspecified) ?
Reply: 5

Ask: May I ask what cytotoxicity at 70.5 h has been recorded for `O=C1CCOC[C@]2(CN(Cc3ccccc3)C[C@H]2c2ccccc2F)N1` ?
Reply: 1.5

Ask: May I ask what cytotoxicity at 70.5 h has been recorded for CC1CN(c2ccccc2Cl)C(=O)CN1C(=O)c1c[nH]c(=O)c(Cl)c1 (stereo unspecified) ?
Reply: -0.811

Ask: May I ask what cytotoxicity at 70.5 h has been recorded for Cn1cnc2c1CCN(CC(O)c1ccc3c(c1)OCCO3)C2 (stereo unspecified) ?
Reply: 9.43

Ask: May I ask what cytotoxicity at 70.5 h has been recorded for Cc1nnc(C(C)N2CCCN(Cc3ccc(C#N)cc3)CC2)o1 (stereo unspecified) ?
Reply: -2.73

Ask: May I ask what cytotoxicity at 70.5 h has been recorded for CCC1(CC)CC(=O)N(CC(O)c2cccc(Br)c2)C1=O (stereo unspecified) ?
Reply: 28.9

* * *

Items are presented alongside their recorded cytotoxicity at 70.5 h.
assay: Human HepG2 cell viability assay in 384 well format; format: toxicity, cell-based; design: dose 125 nL, time 70.5 hour; concentration not given beside the values; settings: HepG2 cells, read-out: Inhibition
Your answer should be a plain number; it is taken to be in %.

Cc1n[nH]c(C)c1CCN(C)c1ccc(-c2nc(C3CC3)no2)cn1 : 4.49
CC(C)(C)CC(=O)NCC1CCCS1 (configuration not stated) : -8.2
CCOC(CC)C(=O)NCCC(=O)N1CCN(c2ncccn2)CC1 (configuration not stated) : -18.6
O=C(CCc1ccsc1)N1CCCCC1Cn1cccn1 (configuration not stated) : -9.96
CN(C)CC1CN(Cc2ccsc2)Cc2nccn2C1 (configuration not stated) : -0.272

Ask: May I ask what cytotoxicity at 70.5 h has been recorded for `Cc1noc(C[C@@H]2COC[C@H]3CN(S(=O)(=O)C4CC4)C[C@@H]23)n1` ?
Reply: -5.01

Ask: May I ask what cytotoxicity at 70.5 h has been recorded for `Cc1cc(N)n(-c2ccc3nnc(C)n3n2)n1` ?
Reply: 6.51

Ask: May I ask what cytotoxicity at 70.5 h has been recorded for Cc1cc(C(C)NC(=O)CCN2C(=O)c3ccccc3C2=O)c(C)o1 (configuration not stated) ?
Reply: 28.1

Ask: May I ask what cytotoxicity at 70.5 h has been recorded for `Cn1c2c(c(=O)n1C)CN(S(=O)(=O)c1cccs1)CCC2` ?
Reply: -5.01

Ask: May I ask what cytotoxicity at 70.5 h has been recorded for `CC(C)(C)n1nc(C2CC2)cc1C(=O)NCC1(C(N)=O)CCOCC1` ?
Reply: 22.2

Ask: May I ask what cytotoxicity at 70.5 h has been recorded for Nc1cc(N2CCCC2c2cnccn2)ncn1 (configuration not stated) ?
Reply: -7.75

Ask: May I ask what cytotoxicity at 70.5 h has been recorded for CC(C)c1cc(NCC(C)N2CCCC2)n2nccc2n1 (configuration not stated) ?
Reply: -10.1

* * *

Items are presented alongside their recorded cytotoxicity at 70.5 h.
assay: Human HepG2 cell viability assay in 384 well format; format: toxicity, cell-based; set-up: dose 125 nL, time 70.5 hour; concentration not given beside the values; conditions: HepG2 cells, read-out: Inhibition
Your answer should be a plain number; it is taken to be in %.

Ask: May I ask what cytotoxicity at 70.5 h has been recorded for `CN1CCCN(c2nccc(-c3cncnc3C3CCCCC3)n2)CC1` ?
Reply: 20.6

Ask: May I ask what cytotoxicity at 70.5 h has been recorded for Cc1cccc(C(=O)N2CCC3(CCN(c4cnn(C)c4)C3=O)C2)n1 (stereo not drawn) ?
Reply: -1.73

* * *

Items are presented alongside their recorded cytotoxicity at 70.5 h.
assay: Human HepG2 cell viability assay in 384 well format; assay type: toxicity, cell-based; design: dose 125 nL, time 70.5 hour; concentration not given beside the values; conditions: HepG2 cells, read-out: Inhibition
Your answer should be a plain number; it is taken to be in %.

O=C1CNc2ncnc(N3CCN(Cc4cccc(F)c4)CC3)c2N1 : 17.9
NC(=O)CN1CCN(CC2CC2)c2ccccc21 : 13.1
COc1ccccc1CCN1CCCC(CN(C)Cc2ccc(C)o2)C1 (centres undefined) : -8.57
c1cc(CN2CCN(Cc3cscn3)CC2)cs1 : -6.89

Ask: May I ask what cytotoxicity at 70.5 h has been recorded for `CN1CCc2nc3cc(C(=O)NCc4cccs4)ccc3c(=O)n2CC1` ?
Reply: -2.15

Ask: May I ask what cytotoxicity at 70.5 h has been recorded for `CC(C)N(CC(N)=O)Cc1cccc(Br)c1` ?
Reply: 1.5

Ask: May I ask what cytotoxicity at 70.5 h has been recorded for O=C(c1cnc(NCCC2CCCO2)c(Cl)c1)N1CCCCC1 (centres undefined) ?
Reply: -10

Ask: May I ask what cytotoxicity at 70.5 h has been recorded for O=C(NCCc1ccccc1)N1CCCCC1C1OCCO1 (centres undefined) ?
Reply: -1.28

Ask: May I ask what cytotoxicity at 70.5 h has been recorded for `Cc1ncc(CN2CC[C@@](C)(O)[C@H](Oc3cccc(F)c3)C2)cn1` ?
Reply: 14.8

Ask: May I ask what cytotoxicity at 70.5 h has been recorded for Cc1cc(C)n(-c2cccc(C(=O)Nc3n[nH]c(C4CCCO4)n3)c2)n1 (centres undefined) ?
Reply: -8.19

Ask: May I ask what cytotoxicity at 70.5 h has been recorded for `CCN(CC(=O)N(C)C)C(=O)c1nc(C)n(-c2ccccc2Cl)n1` ?
Reply: -0.577

Ask: May I ask what cytotoxicity at 70.5 h has been recorded for Oc1cc(C2CCCCN2C2CCCC2)nc(-c2cccnc2)n1 (centres undefined) ?
Reply: -7.77

Ask: May I ask what cytotoxicity at 70.5 h has been recorded for `Cc1ccc(S(C)(=O)=O)cc1C(=O)NS(=O)(=O)c1ccc(Cl)cc1` ?
Reply: -4.48

Ask: May I ask what cytotoxicity at 70.5 h has been recorded for `CC(=O)N1CC[C@H]2OCC[C@@]2(C(=O)NCCc2ccccn2)C1` ?
Reply: 4.18

Ask: May I ask what cytotoxicity at 70.5 h has been recorded for `Cc1ccc(CN2CC[C@@H]3[C@@H](CO[C@H]3CN(C)C)C2)o1` ?
Reply: -5.5

Ask: May I ask what cytotoxicity at 70.5 h has been recorded for Cc1ccc(N2CCCC(N(C)Cc3ccccn3)C2)nn1 (centres undefined) ?
Reply: -10.3

Ask: May I ask what cytotoxicity at 70.5 h has been recorded for `CN(C)c1nc(N)nc(CSCCC(=O)Nc2ccc(F)cc2)n1` ?
Reply: -7.07

Ask: May I ask what cytotoxicity at 70.5 h has been recorded for `O=C(O)[C@@H]1CN(C(=O)CCCc2ccc(F)cc2)C[C@H]1C1CC1` ?
Reply: -5.36

Ask: May I ask what cytotoxicity at 70.5 h has been recorded for `Cc1ccnc(OCC(=O)N2CCN(c3ncccn3)CC2)n1` ?
Reply: -12.6

Ask: May I ask what cytotoxicity at 70.5 h has been recorded for O=S(=O)(N1CCOCC1)N1CCOC(CCCc2ccccc2)C1 (centres undefined) ?
Reply: -11.2

Ask: May I ask what cytotoxicity at 70.5 h has been recorded for COc1c(CNC2CCc3ccccc32)c(C(C)C)nn1C (centres undefined) ?
Reply: -16.4

Ask: May I ask what cytotoxicity at 70.5 h has been recorded for `CC(C)OCCOCc1cccc(NC(=O)NCc2cnn(C)c2)c1` ?
Reply: -0.106

Ask: May I ask what cytotoxicity at 70.5 h has been recorded for `Cc1nc(CN2CCN(C(=O)CC(C)(C)c3ccccc3)CC2)no1` ?
Reply: -5.37

Ask: May I ask what cytotoxicity at 70.5 h has been recorded for `CO[C@@H]1CCC[C@@H](NC(=O)C(C)(C)c2cccc(F)c2)[C@H]1O` ?
Reply: -7.35
